test: Volume of distribution at steady state in Sprague-Dawley rat at 0.5 mg/kg, iv; assay type: ADME, organism-based; parameters: dose 0.5 mg/kg, route intravenous; conditions: in vivo, read-out: Vdss
As shown below, each of these molecules has a reported Vd value.
Units required after the number.

smiles_string=Cn1nc(C(C)(C)C)cc1NC(=O)C(C)(C)S(=O)(=O)c1ccc(Cl)cc1 assay_result="2 L/kg"

Problem: Give Vd for the following molecule: "CC(C)(C(=O)Nc1ccc(Cl)c(C(F)(F)F)c1)S(=O)(=O)c1ccc(Cl)cc1"
Result: 9.3 L/kg

###

target: UniProt:P21554; experiment: Agonist activity at human CB1 expressed in CHO cells receptor assessed as suppression of forskolin-stimulated cAMP accumulation relative to control; type: functional, cell-based
Classify: condition met when Emax is strictly less than 40%; condition not met when Emax is not.

smiles_string=CC(C)(C(=O)Nc1ccc(C(F)(F)F)cc1)S(=O)(=O)c1ccc(Cl)cc1 experimental_target=UniProt:P21554 label_value="condition met"
smiles_string=CC(C)(C(=O)Nc1cnc2ccccc2c1)S(=O)(=O)c1ccc(C(F)(F)F)cc1 experimental_target=UniProt:P21554 label_value="condition not met"
smiles_string=CC(C)(C(=O)Nc1cccc(C(F)(F)F)c1)S(=O)(=O)c1ccc(Cl)cc1 experimental_target=UniProt:P21554 label_value="condition met"
smiles_string=CC(C)(C(=O)Nc1ccc(Cl)c(-c2ccco2)c1)S(=O)(=O)c1ccc(Cl)cc1 experimental_target=UniProt:P21554 label_value="condition not met"
smiles_string=Cc1ccc(-c2cncc(NC(=O)C(C)(C)S(=O)(=O)c3ccc(Cl)cc3)c2)s1 experimental_target=UniProt:P21554 label_value="condition not met"

Problem: Regarding "CC(C)(C(=O)Nc1cnc2ccccc2c1)S(=O)(=O)c1ccc(Cl)cc1" , kindly confirm whether its Emax is beneath 40%.
Result: condition not met

Problem: Regarding "CC(C)(C(=O)Nc1cnc2ccccc2c1)S(=O)(=O)c1ccc(F)cc1" , kindly confirm whether its Emax is beneath 40%.
Result: condition met

Problem: Regarding "CC(C)(C)c1cc(NC(=O)C(C)(C)S(=O)(=O)c2ccc(Cl)cc2)no1" , kindly confirm whether its Emax is beneath 40%.
Result: condition met

Problem: Regarding "Cn1nc(C(C)(C)C)cc1NC(=O)C(C)(C)S(=O)(=O)c1ccc(Cl)cc1" , kindly confirm whether its Emax is beneath 40%.
Result: condition met

###

biological target: Cannabinoid receptor 1 (Homo sapiens, UniProt P21554); experiment: Agonist activity at human CB1 receptor expressed in SF9 cells assessed as inhibition of CP-55940-stimulated GTP binding relative to control
Sequence (P21554 whole entry): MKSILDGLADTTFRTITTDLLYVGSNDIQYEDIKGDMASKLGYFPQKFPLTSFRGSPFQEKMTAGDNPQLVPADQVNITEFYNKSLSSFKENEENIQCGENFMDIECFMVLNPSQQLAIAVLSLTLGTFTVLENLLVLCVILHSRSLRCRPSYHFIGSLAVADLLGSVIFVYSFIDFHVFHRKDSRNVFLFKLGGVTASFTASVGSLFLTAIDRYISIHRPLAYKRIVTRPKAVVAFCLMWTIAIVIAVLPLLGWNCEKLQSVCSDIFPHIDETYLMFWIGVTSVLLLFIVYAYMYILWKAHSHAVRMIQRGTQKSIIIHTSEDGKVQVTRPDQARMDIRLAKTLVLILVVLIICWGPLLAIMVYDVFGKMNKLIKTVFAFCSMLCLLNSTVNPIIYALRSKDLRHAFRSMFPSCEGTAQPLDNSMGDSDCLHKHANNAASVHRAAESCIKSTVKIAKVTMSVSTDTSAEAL
I would appreciate it if you labelled entries t when Emax is 10% or higher, otherwise f.

Solved cases below.
smiles_string=CC(C)(C(=O)NCc1ccc(F)c(Cl)c1)S(=O)(=O)c1ccc(Cl)cc1 experimental_target="Cannabinoid receptor 1 (Homo sapiens, UniProt P21554)" label_value=f
smiles_string=Cn1nc(C(C)(C)C)cc1NC(=O)C(C)(C)S(=O)(=O)c1ccc(Cl)cc1 experimental_target="Cannabinoid receptor 1 (Homo sapiens, UniProt P21554)" label_value=t
smiles_string=CC(C)(C(=O)Nc1ccc(Cl)cc1C#N)S(=O)(=O)c1ccc(Cl)cc1 experimental_target="Cannabinoid receptor 1 (Homo sapiens, UniProt P21554)" label_value=f
smiles_string=CC(C)(C(=O)Nc1ccc(Cl)c(Br)c1)S(=O)(=O)c1ccc(Cl)cc1 experimental_target="Cannabinoid receptor 1 (Homo sapiens, UniProt P21554)" label_value=f
smiles_string=Cc1ccc(-c2cncc(NC(=O)C(C)(C)S(=O)(=O)c3ccc(Cl)cc3)c2)s1 experimental_target="Cannabinoid receptor 1 (Homo sapiens, UniProt P21554)" label_value=t
smiles_string=CC(C)(C)c1cc(NC(=O)C(C)(C)S(=O)(=O)c2ccc(Cl)cc2)no1 experimental_target="Cannabinoid receptor 1 (Homo sapiens, UniProt P21554)" label_value=t
smiles_string=CC(C)(C(=O)Nc1ccc(Cl)cc1OC(F)(F)F)S(=O)(=O)c1ccc(Cl)cc1 experimental_target="Cannabinoid receptor 1 (Homo sapiens, UniProt P21554)" label_value=f
smiles_string=Cc1ccccc1-c1nnc(NC(=O)C(C)(C)S(=O)(=O)c2ccc(Cl)cc2)s1 experimental_target="Cannabinoid receptor 1 (Homo sapiens, UniProt P21554)" label_value=t

Consider now this further compound.
Problem: # check: Emax of "CC(C)(C(=O)Nc1cccc(C(F)(F)F)c1)S(=O)(=O)c1ccc(Cl)cc1" is greater than or equal to 10%
Result: t

###

As shown below, each of these molecules has a reported pEC50 value.
biological target: Cannabinoid receptor 2 (Homo sapiens); experiment: Agonist activity at human CB2 receptor expressed in SF9 cells assessed as inhibition of CP-55940-stimulated GTP binding
pEC50: −log10 of the molar value.

smiles_string=CC(C)(C(=O)NCc1ccccc1)S(=O)(=O)c1ccc(Cl)cc1 experimental_target="Cannabinoid receptor 2 (Homo sapiens)" assay_readout=pEC50 assay_result="< 5.00"

Problem: Give pEC50 for the following molecule: "CC(C)(C(=O)Nc1ccc(Cl)cc1C#N)S(=O)(=O)c1ccc(Cl)cc1"
Result: < 5.00

Problem: Give pEC50 for the following molecule: "Cc1cnc(NC(=O)C(C)(C)S(=O)(=O)c2ccc(Cl)cc2)s1"
Result: < 5.00

###

biological target: UniProt P21554; experiment: Agonist activity at human CB1 receptor expressed in SF9 cells assessed as inhibition of CP-55940-stimulated GTP binding
As shown below, each of these molecules has a reported EC50 value.

Problem: Give EC50 for the following molecule: "CC(C)(C(=O)Nc1ccc(C(F)(F)F)cc1)S(=O)(=O)c1ccc(Cl)cc1"
Result: > 10 µM

Problem: Give EC50 for the following molecule: CC1(c2nnc(NC(=O)C(C)(C)S(=O)(=O)c3ccc(Cl)cc3)s2)CCOC1 (centres undefined)
Result: > 10 µM

Problem: Give EC50 for the following molecule: "Cn1nc(C(C)(C)C)cc1NC(=O)C(C)(C)S(=O)(=O)c1ccc(Cl)cc1"
Result: 223 µM

Problem: Give EC50 for the following molecule: "CC(C)(C(=O)Nc1ccc(Cl)cc1OC(F)(F)F)S(=O)(=O)c1ccc(Cl)cc1"
Result: > 10 µM

###

target: UniProt P34972; assay: Agonist activity at human CB2 receptor expressed in SF9 cells assessed as inhibition of CP-55940-stimulated GTP binding
As shown below, each of these molecules has a reported EC50 value.
Units required after the number.

Problem: Give EC50 for the following molecule: "CC(C)(C(=O)Nc1ccc(C(F)(F)F)cc1)S(=O)(=O)c1ccc(Cl)cc1"
Result: 115 nM

Problem: Give EC50 for the following molecule: "CC(C)(C(=O)Nc1cnc2ccccc2c1)S(=O)(=O)c1ccc(C(F)(F)F)cc1"
Result: 96 nM

Problem: Give EC50 for the following molecule: "CC(C)(C(=O)Nc1cnc2ccccc2c1)S(=O)(=O)c1ccc(F)cc1"
Result: 109 nM

Problem: Give EC50 for the following molecule: "CC(C)(C(=O)Nc1ccc(Cl)c(Br)c1)S(=O)(=O)c1ccc(Cl)cc1"
Result: 86 nM

###

target: Cannabinoid receptor 2 (Homo sapiens, UniProt P34972); assay: Agonist activity at human CB2 receptor expressed in CHO cells assessed as suppression of forskolin-stimulated cAMP accumulation relative to control; type: functional, cell-based
Sequence (P34972 whole entry): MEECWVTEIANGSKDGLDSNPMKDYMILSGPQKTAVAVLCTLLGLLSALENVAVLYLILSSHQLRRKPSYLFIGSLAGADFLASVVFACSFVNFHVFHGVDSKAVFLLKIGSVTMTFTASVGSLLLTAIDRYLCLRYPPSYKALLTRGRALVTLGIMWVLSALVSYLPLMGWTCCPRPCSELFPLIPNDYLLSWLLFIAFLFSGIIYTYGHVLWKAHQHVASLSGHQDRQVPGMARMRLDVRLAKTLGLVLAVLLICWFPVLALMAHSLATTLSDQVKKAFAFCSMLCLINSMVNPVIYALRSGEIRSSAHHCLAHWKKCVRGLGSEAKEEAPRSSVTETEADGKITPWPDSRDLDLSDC
As shown below, each of these compounds has a reported Emax value.
Numeric answer only, unit % assumed.

smiles_string=CC(C)(C(=O)Nc1cnc2ccccc2c1)S(=O)(=O)c1ccc(C(F)(F)F)cc1 assay_result=96
smiles_string=CC(C)(C(=O)Nc1cnc2ccccc2c1)S(=O)(=O)c1ccc(Cl)cc1 assay_result=93

Problem: Give Emax for the following compound: "Cc1ccc(-c2cncc(NC(=O)C(C)(C)S(=O)(=O)c3ccc(Cl)cc3)c2)s1"
Result: 99

###

target: Cannabinoid receptor 1 (Homo sapiens, UniProt P21554); experiment: Agonist activity at human CB1 receptor expressed in SF9 cells assessed as inhibition of CP-55940-stimulated GTP binding
Classify: 1 (yes) when EC50 is strictly less than 2 µM; 0 (no) when EC50 is not.

smiles_string=CC(C)(C(=O)NCc1ccccc1)S(=O)(=O)c1ccc(Cl)cc1 label_value="0 (no)"

Problem: Regarding "CC(C)(C(=O)Nc1cnc2ccccc2c1)S(=O)(=O)c1ccc(Cl)cc1" , kindly confirm whether its EC50 is beneath 2 µM.
Result: 1 (yes)

Problem: Regarding "CC(C)(C(=O)NCc1ccc(F)c(Cl)c1)S(=O)(=O)c1ccc(Cl)cc1" , kindly confirm whether its EC50 is beneath 2 µM.
Result: 0 (no)

Problem: Regarding "CC(C)(C(=O)Nc1ccc(Cl)c(Br)c1)S(=O)(=O)c1ccc(Cl)cc1" , kindly confirm whether its EC50 is beneath 2 µM.
Result: 0 (no)

Problem: Regarding "CC(C)(C(=O)Nc1cnc2ccccc2c1)S(=O)(=O)c1ccc(C(F)(F)F)cc1Cl" , kindly confirm whether its EC50 is beneath 2 µM.
Result: 1 (yes)

Problem: Regarding "CC(C)(C(=O)Nc1cccc(C(F)(F)F)c1)S(=O)(=O)c1ccc(Cl)cc1" , kindly confirm whether its EC50 is beneath 2 µM.
Result: 0 (no)

Problem: Regarding "CC(C)(C)c1cc(NC(=O)C(C)(C)S(=O)(=O)c2ccc(Cl)cc2)no1" , kindly confirm whether its EC50 is beneath 2 µM.
Result: 1 (yes)

Problem: Regarding "Cc1cnc(NC(=O)C(C)(C)S(=O)(=O)c2ccc(Cl)cc2)s1" , kindly confirm whether its EC50 is beneath 2 µM.
Result: 0 (no)

Problem: Regarding "COc1ccc(S(=O)(=O)C(C)(C)C(=O)Nc2cnc3ccccc3c2)c(Cl)c1" , kindly confirm whether its EC50 is beneath 2 µM.
Result: 0 (no)

Problem: Regarding "Cc1cc(NC(=O)C(C)(C)S(=O)(=O)c2ccc(Cl)cc2)no1" , kindly confirm whether its EC50 is beneath 2 µM.
Result: 0 (no)

Problem: Regarding "CC(C)(C(=O)Nc1ccc(Cl)cc1C#N)S(=O)(=O)c1ccc(Cl)cc1" , kindly confirm whether its EC50 is beneath 2 µM.
Result: 0 (no)

Problem: Regarding "CC(C)(C(=O)Nc1ccc(Cl)c(C(F)(F)F)c1)S(=O)(=O)c1ccc(Cl)cc1" , kindly confirm whether its EC50 is beneath 2 µM.
Result: 0 (no)

Problem: Regarding "CC(C)(C(=O)Nc1cnc2ccccc2c1)S(=O)(=O)c1ccc(F)cc1" , kindly confirm whether its EC50 is beneath 2 µM.
Result: 0 (no)

Problem: Regarding "CC(C)(C(=O)Nc1cnc2ccccc2c1)S(=O)(=O)c1ccc(F)cc1Cl" , kindly confirm whether its EC50 is beneath 2 µM.
Result: 0 (no)

Problem: Regarding "CC(C)(C(=O)Nc1ccc(Cl)c(-c2ccco2)c1)S(=O)(=O)c1ccc(Cl)cc1" , kindly confirm whether its EC50 is beneath 2 µM.
Result: 1 (yes)
